Below are IC50 values measured for Cytochrome P450 2C9 (Homo sapiens, UniProt P11712).

| smilesStr | subjectOfTest | outputUnit | IC50 |
| --- | --- | --- | --- |
| Cc1nc2sc3c(NCC4CC4)nn(C)c3c2c(C)c1Cl | Cytochrome P450 2C9 (Homo sapiens, UniProt P11712) | nM | 1000 |
| Cc1nc2sc3c(NCc4ccco4)nn(C)c3c2c(C)c1Cl | Cytochrome P450 2C9 (Homo sapiens, UniProt P11712) | nM | 1000 |

====

biological target: Cytochrome P450 1A2 (Homo sapiens, UniProt P05177)
Sequence (P05177 whole entry): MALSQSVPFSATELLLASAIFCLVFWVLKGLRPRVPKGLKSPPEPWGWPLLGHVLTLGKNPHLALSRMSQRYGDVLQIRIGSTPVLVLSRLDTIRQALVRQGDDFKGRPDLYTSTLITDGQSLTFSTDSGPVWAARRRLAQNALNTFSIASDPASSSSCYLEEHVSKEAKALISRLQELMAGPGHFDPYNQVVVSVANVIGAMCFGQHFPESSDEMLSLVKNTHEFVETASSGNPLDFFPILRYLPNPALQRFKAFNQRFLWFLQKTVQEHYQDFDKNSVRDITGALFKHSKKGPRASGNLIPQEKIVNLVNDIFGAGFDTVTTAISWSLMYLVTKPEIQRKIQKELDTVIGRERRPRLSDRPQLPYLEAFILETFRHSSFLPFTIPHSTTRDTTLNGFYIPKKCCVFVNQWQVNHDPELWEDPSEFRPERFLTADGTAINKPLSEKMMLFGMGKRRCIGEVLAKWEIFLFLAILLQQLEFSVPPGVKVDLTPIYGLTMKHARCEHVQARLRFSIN
assayMetric: IC50

| smilesStr | assayMetric | result |
| --- | --- | --- |
| Cc1nc2sc3c(NCC4CC4)nn(C)c3c2c(C)c1Cl | IC50 | < 100 nM |
| Cc1nc2sc3c(NCc4ccco4)nn(C)c3c2c(C)c1Cl | IC50 | < 100 nM |

====

Below, each of the molecules is paired with its reported log10 EC50 value.
target: Muscarinic acetylcholine receptor M4 (Homo sapiens); test: Positive allosteric modulation of Gqi5-fused human M4 AChR assessed as increase in acetylcholine-induced calcium mobilization
assayMetric: log10 EC50 (log10 of the value in nM)

| smilesStr | number |
| --- | --- |
| COc1ccc(CNC(=O)c2sc3nnc(C)c(C)c3c2C)cc1F | 3.32 |
| Cc1cc(C)c2c(n1)sc1c(NCc3ccc(F)cc3)n[nH]c12 | 3.04 |
| Cc1cc(C)c2c(n1)sc1c(NCc3ccccc3)n[nH]c12 | 3.00 |
| Cc1cc(C)c2c(C)c(C(=O)NCc3ccc4c(c3)OCCO4)sc2n1 | 3.32 |
| Cc1nc2sc3c(NCc4ccco4)nn(C)c3c2c(C)c1Cl | 2.08 |
| Cc1cc(C)c2c(n1)sc1c(NCC3CC3)n[nH]c12 | 3.30 |
| Cc1cc(C)c2c(n1)sc1c(NCc3ccco3)n[nH]c12 | 3.08 |
| Cc1cc(C)c2c(n1)sc1c(NCC3CCCC3)n[nH]c12 | 3.58 |
| Cc1cc(C)c2c(C)c(C(=O)NCc3ccc(S(C)(=O)=O)cc3)sc2n1 | 3.81 |
| CSc1ccc(CNC(=O)c2sc3nc(C)cc(C)c3c2C)cc1 | 3.18 |

====

Target: Muscarinic acetylcholine receptor M4 (Homo sapiens, UniProt P08173)
Sequence (P08173 whole entry): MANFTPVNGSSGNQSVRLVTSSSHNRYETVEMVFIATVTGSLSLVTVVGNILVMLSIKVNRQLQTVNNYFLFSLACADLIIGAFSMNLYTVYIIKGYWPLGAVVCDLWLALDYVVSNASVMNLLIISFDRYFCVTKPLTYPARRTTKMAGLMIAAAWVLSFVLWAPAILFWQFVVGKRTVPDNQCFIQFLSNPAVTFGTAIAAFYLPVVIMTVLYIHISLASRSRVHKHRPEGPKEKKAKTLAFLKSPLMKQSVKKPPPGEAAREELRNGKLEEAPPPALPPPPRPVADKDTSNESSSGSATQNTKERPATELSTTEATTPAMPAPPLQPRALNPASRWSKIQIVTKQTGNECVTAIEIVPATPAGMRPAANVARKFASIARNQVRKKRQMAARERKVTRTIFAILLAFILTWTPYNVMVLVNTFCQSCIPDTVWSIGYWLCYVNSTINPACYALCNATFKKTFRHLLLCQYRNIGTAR
Assay: Positive allosteric modulation of Gqi5-fused human M4 AChR assessed as increase in acetylcholine-induced calcium mobilization
pEC50: −log10 of the molar value.
Below, each of the compounds is paired with its reported pEC50 value.

| smilesStr | pEC50 |
| --- | --- |
| Cc1nnc2sc3c(NCc4ccco4)nn(C)c3c2c1C | 6.16 |
| CCc1c(C(=O)NCc2ccc(OC)c(F)c2)sc2nnc(C)c(C)c12 | 5.66 |
| Cc1cc(C)c2c(C)c(C(=O)NCc3ccc4c(c3)CCO4)sc2n1 | 5.23 |
| COc1ccc(CNC(=O)c2sc3nnc(C)c(C)c3c2C2CC2)cc1F | 5.25 |
| Cc1nc2sc3c(NCC4CC4)nn(C)c3c2c(C)c1Cl | 6.64 |
| Cc1nnc2sc3c(NCc4ccc(S(C)(=O)=O)c(F)c4)nn(C)c3c2c1C | 6.80 |
| COc1ccc(CNC(=O)c2sc3nc(C)cc(C)c3c2C)cc1 | 5.57 |
| COc1ccc(CNC(=O)c2cc3c(C)cc(C)nc3s2)cc1 | 5.29 |

====

molecular target: P-gp (ABCB1) (Homo sapiens, UniProt P08183); experiment: Substrate activity at human P-gp assessed as efflux ratio; format: ADME; conditions: not told
Sequence (P08183 whole entry): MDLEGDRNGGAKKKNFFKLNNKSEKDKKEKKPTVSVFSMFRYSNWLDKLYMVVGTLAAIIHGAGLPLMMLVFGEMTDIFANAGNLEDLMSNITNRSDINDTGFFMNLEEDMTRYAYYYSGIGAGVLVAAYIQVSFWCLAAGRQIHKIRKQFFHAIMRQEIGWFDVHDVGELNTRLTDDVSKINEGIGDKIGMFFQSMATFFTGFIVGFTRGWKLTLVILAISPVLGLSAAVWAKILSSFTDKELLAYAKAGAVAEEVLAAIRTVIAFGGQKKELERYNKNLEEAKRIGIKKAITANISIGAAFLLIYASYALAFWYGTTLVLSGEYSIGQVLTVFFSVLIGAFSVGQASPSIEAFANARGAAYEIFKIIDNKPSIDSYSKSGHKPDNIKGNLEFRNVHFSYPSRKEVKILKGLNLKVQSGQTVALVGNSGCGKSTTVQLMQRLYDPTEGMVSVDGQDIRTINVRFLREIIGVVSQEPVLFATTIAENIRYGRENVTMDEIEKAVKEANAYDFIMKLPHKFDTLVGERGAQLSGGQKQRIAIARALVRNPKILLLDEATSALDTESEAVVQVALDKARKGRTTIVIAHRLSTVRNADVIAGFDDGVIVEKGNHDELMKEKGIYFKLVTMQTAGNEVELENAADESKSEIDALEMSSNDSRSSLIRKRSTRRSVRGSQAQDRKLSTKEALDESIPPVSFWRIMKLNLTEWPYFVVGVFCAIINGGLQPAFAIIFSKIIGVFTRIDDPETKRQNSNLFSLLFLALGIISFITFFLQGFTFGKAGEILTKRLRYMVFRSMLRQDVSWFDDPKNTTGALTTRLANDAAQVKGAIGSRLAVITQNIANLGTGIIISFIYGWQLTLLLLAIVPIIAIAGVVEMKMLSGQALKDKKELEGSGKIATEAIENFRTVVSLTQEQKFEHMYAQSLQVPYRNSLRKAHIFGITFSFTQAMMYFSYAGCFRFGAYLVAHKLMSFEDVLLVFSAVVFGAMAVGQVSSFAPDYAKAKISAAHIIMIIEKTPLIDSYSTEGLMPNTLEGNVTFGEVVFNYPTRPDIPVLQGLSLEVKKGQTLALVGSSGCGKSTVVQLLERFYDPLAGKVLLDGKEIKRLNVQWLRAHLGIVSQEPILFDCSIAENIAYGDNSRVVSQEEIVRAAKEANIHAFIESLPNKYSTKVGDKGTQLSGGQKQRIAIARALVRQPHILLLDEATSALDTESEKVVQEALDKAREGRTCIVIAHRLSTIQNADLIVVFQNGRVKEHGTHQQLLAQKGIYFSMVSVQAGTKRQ

| smilesStr | efflux ratio |
| --- | --- |
| Cc1nnc2sc3c(NCc4ccc(S(C)(=O)=O)c(F)c4)nn(C)c3c2c1C | > 10 |

====

biological target: Muscarinic acetylcholine receptor M4 (Homo sapiens) (UniProt P08173); test: Positive allosteric modulation of Gqi5-fused human M4 AChR assessed as increase in acetylcholine-induced calcium mobilization relative to acetylcholine alone; assay type: functional
assayMetric: Emax (%)

| smilesStr | assayMetric | outputUnit | number |
| --- | --- | --- | --- |
| Cc1nc2sc3c(NCc4ccccc4)nn(C)c3c2c(C)c1Cl | Emax | % | 39 |
| Cc1cc(C)c2c(C)c(C(=O)NCc3ccc(S(C)(=O)=O)cc3)sc2n1 | Emax | % | 58 |
| Cc1nnc2sc(C(=O)NC3COC3)c(C3CC3)c2c1C | Emax | % | 38 |
| Cc1nnc2sc3c(NCC4CC4)nn(C)c3c2c1C | Emax | % | 84 |
| COc1ccc(CNC(=O)c2cc3c(C)cc(C)nc3s2)cc1 | Emax | % | 53 |
| Cc1cc(C)c2c(n1)sc1c(NCC3CCCC3)n[nH]c12 | Emax | % | 65 |

From: ChEMBL document CHEMBL4371085
